Hey, just so you know, these numbers are from ChEMBL document CHEMBL1201862.

Test system: ACHN
test protocol: NCI tumour cell line growth inhibition, 48 h
Active and inactive are the calls of the source. No stated cut-off is given here; in the data, active = GI50 up to about 1.1 µM and inactive = higher.
Permitted responses: True = active, False = inactive

Tell me the recorded outcome of this test for Clc1ccc(COC(Cn2ccnc2)c2ccc(Cl)cc2Cl)c(Cl)c1 (stereo not given) [MICONAZOLE] .
False

Ok, now "Nc1nc(O)c(N)c(NCCOCP(=O)(O)O)n1"
False

Also check "C[C@@H](C[C@@H](O)[C@H](O)C(C)(C)O)[C@H]1CC=C2[C@]3(C)[C@H](O)C[C@H]4C(C)(C)[C@H](O)CC[C@]4(C)[C@H]3CC[C@@]21C"
False

Another molecule: "CN1N=C2NCCNC3=NN(C)/C(=N/CC/N=C/1S2)S3"
False

"CC(=O)c1c(SCCN2CCCCCC2)n(-c2ccccc2)c(=S)n(-c2ccccc2)c1=O" , same question.
False

Same thing, different molecule: Cc1cc(C)nc(SC(C)C(=O)N/N=C/c2ccc(OCc3ccccc3)cc2)n1 (stereo not given)
False

Try the molecule c1ccc(C(NC2CCCCC2NCCNC2CCCCC2NC(c2ccccc2)(c2ccccc2)c2ccccc2)(c2ccccc2)c2ccccc2)cc1 (stereo not given)
False

Now this one: "N[C@@H](Cc1ccccc1)C(=O)N1CCC[C@@H]1P(=O)(Oc1ccccc1)Oc1ccccc1"
False

And for CCCNC1=C2CC(C)CC(OC)[C@@H](O)[C@H](C)/C=C(\C)C(OC(N)=O)C(OC)/C=C\C=C(/C)C(=O)NC(=CC1=O)C2=O (stereo not given in full) ?
True

What about this molecule? "COc1ccc2c(c1)OCc1c-2oc2ccccc2c1=O"
False
